target: Methyl-CpG-binding domain protein 4 (Homo sapiens) (UniProt O95243); conditions: Compound Concentration 10.0 uM, Hit No
Sequence (O95243 whole entry, the tested form may be a part): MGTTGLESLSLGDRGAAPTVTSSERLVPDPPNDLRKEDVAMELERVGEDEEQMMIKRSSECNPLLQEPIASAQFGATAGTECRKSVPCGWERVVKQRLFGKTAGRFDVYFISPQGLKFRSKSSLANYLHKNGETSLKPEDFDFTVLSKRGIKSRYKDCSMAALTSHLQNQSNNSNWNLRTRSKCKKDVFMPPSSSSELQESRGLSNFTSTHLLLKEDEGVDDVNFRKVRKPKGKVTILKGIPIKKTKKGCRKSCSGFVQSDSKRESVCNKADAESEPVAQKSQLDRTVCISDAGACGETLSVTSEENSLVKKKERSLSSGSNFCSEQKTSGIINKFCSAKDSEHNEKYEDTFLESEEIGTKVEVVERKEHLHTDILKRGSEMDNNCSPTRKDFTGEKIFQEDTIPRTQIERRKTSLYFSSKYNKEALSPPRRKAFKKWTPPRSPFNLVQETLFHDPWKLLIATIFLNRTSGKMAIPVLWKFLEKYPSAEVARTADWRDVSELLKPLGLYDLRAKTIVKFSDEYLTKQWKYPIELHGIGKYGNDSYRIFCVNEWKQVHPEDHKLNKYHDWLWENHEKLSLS
Description: Inhibition of MBD4 by quantifying inhibition of MBD4-mediated cleavage and dissociation of quenched duplex DNA oligonucleotides, measured as fluorescence at 594 nm. To generate a functional strand incision and increase turn-over this assay is coupled to APE1.
property measured: inhibition (%)
Could you give me the number in %? Just the number is fine.

Example compounds with recorded inhibition:
CN1CCC[C@H]1c1cccnc1 | -6.38
N#Cc1cccc(-c2nc(-c3cccnc3)no2)c1 | -5.03
CN1CCN(C(=O)C(C)(C)c2ccc(C(=O)Nc3cn4cc(-c5cc(C(C)(C)C)cc(C(C)(C)C)c5)ccc4n3)cc2)CC1 | -6.81
c1ccc(C2CCN(c3cnc4c(N5CCOCC5)nccn34)CC2)cc1 | 75
Cc1cccc(NC(=O)CN2CCC(c3ccccn3)CC2)c1 | 8.44

State, for Methyl-CpG-binding domain protein 4 (Homo sapiens) (UniProt O95243), measured inhibition of the compound listed here: CC(C)S(=O)(=O)c1ccc2nccc(Nc3ccc4scnc4c3)c2c1
9.41

Report inhibition under test system Methyl-CpG-binding domain protein 4 (Homo sapiens) (UniProt O95243) for Nc1nc(-c2ccco2)c2cnn(Cc3ccccc3F)c2n1 .
-3.33

Please report the measured inhibition for NC(=O)NN=Cc1ccc(Oc2ccc(F)cc2)cc1 tested on Methyl-CpG-binding domain protein 4 (Homo sapiens) (UniProt O95243).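 Also: MBD4 activity read as fluorescence at 594 nm from cleavage and release of a quenched duplex DNA oligonucleotide, with APE1 coupled to incise the strand and raise turnover.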
-2.63

Answer with inhibition of CC(COc1ccccc1)N(CCCl)Cc1ccccc1 (stereo unspecified) measured for Methyl-CpG-binding domain protein 4 (Homo sapiens) (UniProt O95243).
6.02

Fill in: inhibition on Methyl-CpG-binding domain protein 4 (Homo sapiens) (UniProt O95243), entry Nc1ncnc2c1ncn2[C@@H]1O[C@H](COP(=O)(O)OP(=O)(O)O)[C@@H](O)[C@H]1O
10.8

Fill: inhibition (Methyl-CpG-binding domain protein 4 (Homo sapiens) (UniProt O95243)) for this compound CCOC(=O)N1CCC(NS(=O)(=O)c2ccc(NC(=O)c3ccccc3C)c3ccccc23)CC1
-4.31

----------
target: N-glycosylase/DNA lyase (Homo sapiens); conditions: Compound Concentration 10.0 uM, Hit No;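 also: OGG1 cleavage of a quenched duplex DNA oligonucleotide, coupled to APE1 for strand incision, read as fluorescence at 594 nm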
Description: Inhibition of OGG1 by quantifying inhibition of OGG1-mediated cleavage and dissociation of quenched duplex DNA oligonucleotides, measured as fluorescence at 594 nm. To generate a functional strand incision and increase turn-over this assay is coupled to APE1.
property measured: inhibition (%)
Number only, in %; omit the unit.

Worked examples, 5 compounds total:
Cn1c(C2(NC(=O)c3ccc4c(C5CCCC5)c(-c5ncc(Br)cn5)n(C)c4c3)CCC2)nc2ccc(/C=C/C(=O)O)cc21 | 60.3
COc1ccc2[nH]cc(CCNC(C)=O)c2c1 | -4.66
COc1ccc(-c2csc(NC(=O)[C@H]3CCCCN3S(=O)(=O)c3ccc(C)cc3)n2)cc1 | -5.94
Cc1ccccc1C#Cc1ccc(CCC(=O)O)cc1 | 8.7
CNC1(C)C2CCC(C2)C1(C)C (stereo unspecified) | -5.59

Provide measured inhibition value, entry: COc1cc2nc(N3CCN(C(=O)C4CCCO4)CC3)nc(N)c2cc1OC (stereo unspecified)
0.439

Specify reported inhibition for the compound shown: O=C(O)CCCc1cc2cc(Cl)ccc2n1S(=O)(=O)c1ccc2ncsc2c1
5.59

----------
Documented inhibition across a set of compounds
target: UniProt:Q969S2; settings: Compound Concentration 10.0 uM, Hit No
Sequence (Q969S2 whole entry): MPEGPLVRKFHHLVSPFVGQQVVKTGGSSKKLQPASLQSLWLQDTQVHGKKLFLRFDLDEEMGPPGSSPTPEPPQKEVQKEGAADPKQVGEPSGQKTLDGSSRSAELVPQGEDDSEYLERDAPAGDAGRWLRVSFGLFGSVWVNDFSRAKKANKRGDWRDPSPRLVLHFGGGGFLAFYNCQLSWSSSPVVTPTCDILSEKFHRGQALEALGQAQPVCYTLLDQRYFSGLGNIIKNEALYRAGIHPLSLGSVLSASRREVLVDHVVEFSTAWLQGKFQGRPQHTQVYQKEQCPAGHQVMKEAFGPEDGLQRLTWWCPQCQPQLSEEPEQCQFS
Description: Inhibition of NEIL2 by quantifying inhibition of NEIL2-mediated cleavage and dissociation of quenched duplex DNA oligonucleotides, measured as fluorescence at 594 nm.
Field: numeric (%). Do not append units.

COc1cc(-c2cncc(-c3ccc(N4CCN(C(C)C)CC4)cc3)c2C)cc(F)c1C(N)=O | 1.85

Please report the measured inhibition for CC(C)NCC(O)COc1cccc2[nH]ccc12 (centres undefined)
4.01

Please report inhibition for the following compound: CC(Cc1ccc(O)c(O)c1)C(C)Cc1ccc(O)c(O)c1 (centres undefined)
0.265

Give recorded inhibition. CCn1cc(-c2ccnc3[nH]c(-c4cccc(CN(C)C)c4)cc23)c(-c2ccc(NC(=O)N(C)C)cc2)n1
23.1

Please give the documented inhibition of C[C@H](C[C@H](N)C(=O)O)C(=O)O
0.414

Supply reported inhibition belonging to this compound: Cc1cn([C@H](C)CC#N)c(=O)c2cc(Cn3nc(C(F)F)cc3Cl)nn12
-2.27

Query inhibition for c1ccc(NCc2ccc(CNc3ccccn3)cc2)nc1
-4.48

Give reported inhibition value for CC(=O)Nc1nc(C)c(S(=O)(=O)Nc2ccc(C(O)(C(F)(F)F)C(F)(F)F)cc2)s1
2.83

Identify inhibition associated with the compound O=C(NCCS(=O)(=O)c1ccc(C(F)(F)F)cn1)c1ccc(Cl)cc1
1.3
